# TESTED_ON: UniProtKB P04629
# Sequence (P04629 33-796): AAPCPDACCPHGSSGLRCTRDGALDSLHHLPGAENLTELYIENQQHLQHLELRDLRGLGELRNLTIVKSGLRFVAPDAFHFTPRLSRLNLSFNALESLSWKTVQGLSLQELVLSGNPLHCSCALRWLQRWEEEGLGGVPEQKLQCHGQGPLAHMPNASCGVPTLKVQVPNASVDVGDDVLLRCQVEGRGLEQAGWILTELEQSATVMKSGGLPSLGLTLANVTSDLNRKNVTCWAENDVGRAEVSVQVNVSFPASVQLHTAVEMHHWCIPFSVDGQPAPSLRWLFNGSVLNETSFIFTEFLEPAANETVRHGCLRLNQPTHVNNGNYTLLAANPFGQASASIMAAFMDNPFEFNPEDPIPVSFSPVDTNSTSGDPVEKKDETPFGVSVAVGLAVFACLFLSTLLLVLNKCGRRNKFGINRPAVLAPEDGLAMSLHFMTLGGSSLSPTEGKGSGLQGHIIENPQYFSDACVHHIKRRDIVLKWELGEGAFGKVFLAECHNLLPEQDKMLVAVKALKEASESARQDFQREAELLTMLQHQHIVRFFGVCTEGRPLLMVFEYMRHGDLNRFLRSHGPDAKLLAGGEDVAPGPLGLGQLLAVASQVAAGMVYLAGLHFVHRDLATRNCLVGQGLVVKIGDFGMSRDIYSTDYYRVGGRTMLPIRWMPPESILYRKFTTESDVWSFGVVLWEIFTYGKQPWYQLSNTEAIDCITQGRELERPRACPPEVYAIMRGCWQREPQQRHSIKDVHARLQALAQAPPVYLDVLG
# PROTOCOL_SUMMARY: Measurement of TrkA kinase-inhibiting activity using human TrkA-expressing cells
# Assay type: cell-based
# TEST_SETTINGS: CHO-K1 cells expressing human TrkA and NFAT-bla; NGF 50 ng/ml; TR-FRET reporter
Below, each entry is listed with its recorded IC50.
READOUT_TYPE: IC50 (µM)

chemical_smiles=Nc1ncc(Cl)cc1-c1ccc(Oc2ncc(NC(=O)Nc3ccc(C(F)(F)F)cc3Cl)cn2)cc1 unit=µM assay_value=0.002
chemical_smiles=Nc1ncc(C(F)(F)F)cc1-c1ccc(Oc2ncc(NC(=O)Nc3cc(C(F)(F)F)ccc3-n3cc(Cl)cn3)cn2)cc1 unit=µM assay_value=0.001
chemical_smiles=Nc1ncc(Cl)cc1-c1ccc(Oc2ncc(NC(=O)Nc3cc(C(F)(F)F)ccc3-n3ccc(C(F)(F)F)n3)cn2)cc1 unit=µM assay_value=0.002
chemical_smiles=COc1ccn2ncc(-c3ccc(Oc4ncc(NC(=O)Nc5cc(C(F)(F)F)ccc5-c5cccnc5)cn4)cc3)c2n1 unit=µM assay_value=0.001

###

Below, each entry is listed with its recorded IC50.
# TESTED_ON: UniProt P04629
# PROTOCOL_SUMMARY: Measurement of TrkA kinase-inhibiting activity using human TrkA-expressing cells
# Format: cell-based
# TEST_SETTINGS: CHO-K1 cells expressing human TrkA and NFAT-bla; NGF 50 ng/ml; TR-FRET reporter
READOUT_TYPE: IC50 (µM)

chemical_smiles=CN(C)c1ccn2ncc(-c3ccc(Oc4ncc(NC(=O)Nc5cc(C(F)(F)F)ccc5-c5cccnc5)cn4)cc3)c2n1 readout_type=IC50 assay_value=0.001
chemical_smiles=Nc1ncc(C(F)(F)F)cc1-c1ccc(Oc2ncc(NC(=O)Nc3cc(C(F)(F)F)ccc3-n3ccc(C(F)(F)F)n3)cn2)cc1 readout_type=IC50 assay_value=0.004
chemical_smiles=Nc1ncc(Cl)cc1-c1ccc(Oc2ncc(NC(=O)Nc3cc(C(F)(F)F)ccc3-n3cccn3)cn2)cc1 readout_type=IC50 assay_value=0.001
chemical_smiles=Nc1ncc(F)cc1-c1ccc(Oc2ncc(NC(=O)Nc3cc(C(F)(F)F)ccc3-n3ccnn3)cn2)cc1 readout_type=IC50 assay_value=0.001
chemical_smiles=CS(=O)(=O)c1ccc(C(F)(F)F)cc1NC(=O)Nc1cnc(Oc2ccc(-c3cc(F)cnc3N)cc2)nc1 readout_type=IC50 assay_value=0.0004
chemical_smiles=Cn1nccc1-c1ccc(C(F)(F)F)cc1NC(=O)Nc1cnc(Oc2ccc(-c3cc(Cl)cnc3N)cc2)nc1 readout_type=IC50 assay_value=0.002
chemical_smiles=Cc1ccn2ncc(-c3ccc(Oc4ncc(NC(=O)Nc5cc(C(F)(F)F)ccc5-c5cccnc5)cn4)cc3)c2n1 readout_type=IC50 assay_value=0.0007
chemical_smiles=Nc1ncc(Cl)cc1-c1ccc(Oc2ccc(NC(=O)Nc3cc(C(F)(F)F)ccc3-n3ccnn3)cn2)cc1 readout_type=IC50 assay_value=0.001
chemical_smiles=CCOc1ccc2ncc(-c3ccc(Oc4ncc(NC(=O)Nc5cc(C(F)(F)F)ccc5-c5cccnc5)cn4)cc3)n2n1 readout_type=IC50 assay_value=0.001
chemical_smiles=O=C(Nc1cnc(Oc2ccc(-c3cnc4[nH]ncc4c3)cc2)nc1)Nc1cc(C(F)(F)F)ccc1-c1cccnc1 readout_type=IC50 assay_value=0.001
chemical_smiles=CN(C)c1ccn2ncc(-c3ccc(Oc4ncc(NC(=O)Nc5cc(C(F)(F)F)ccc5-c5ccnn5C)cn4)cc3)c2n1 readout_type=IC50 assay_value=0.001
chemical_smiles=O=C(Nc1cnc(Oc2ccc(-c3cnc4[nH]ccc4c3)cc2)nc1)Nc1cc(C(F)(F)F)ccc1-c1cccnc1 readout_type=IC50 assay_value=0.002
chemical_smiles=Nc1ncc(F)cc1-c1ccc(Oc2ncc(NC(=O)Nc3cc(C(F)(F)F)ccc3-c3cccnc3)cn2)cc1 readout_type=IC50 assay_value=0.001
chemical_smiles=Cc1cccc(-c2ccc(C(F)(F)F)cc2NC(=O)Nc2cnc(Oc3ccc(-c4cnn5ccc(N(C)C)nc45)cc3)nc2)c1 readout_type=IC50 assay_value=0.003
chemical_smiles=O=C(Nc1cnc(Oc2ccc(-c3cnn4cccnc34)cc2)nc1)Nc1cc(C(F)(F)F)ccc1-c1cccnc1 readout_type=IC50 assay_value=0.001
chemical_smiles=Nc1ncc(Cl)cc1-c1ccc(Oc2ncc(NC(=O)Nc3cc(Cl)ccc3-n3ccc(C(F)(F)F)n3)cn2)cc1 readout_type=IC50 assay_value=0.002
chemical_smiles=Nc1ncc(Cl)cc1-c1ccc(Oc2ncc(NC(=O)Nc3cc(C(F)(F)F)ccc3-n3cc(Cl)cn3)cn2)cc1 readout_type=IC50 assay_value=0.002
chemical_smiles=Nc1ncc(Cl)cc1-c1ccc(Oc2ccc(NC(=O)Nc3cc(C(F)(F)F)ccc3-n3cccn3)cn2)cc1 readout_type=IC50 assay_value=0.003
chemical_smiles=COc1ccc2ncc(-c3ccc(Oc4ncc(NC(=O)Nc5cc(C(F)(F)F)ccc5-n5cccn5)cn4)cc3)n2n1 readout_type=IC50 assay_value=0.001
chemical_smiles=Cc1ccccc1-c1ccc(C(F)(F)F)cc1NC(=O)Nc1cnc(Oc2ccc(-c3cnn4ccc(N(C)C)nc34)cc2)nc1 readout_type=IC50 assay_value=0.004
chemical_smiles=CN(C)S(=O)(=O)c1ccc(C(F)(F)F)cc1NC(=O)Nc1cnc(Oc2ccc(-c3cc(C(F)(F)F)cnc3N)cc2)nc1 readout_type=IC50 assay_value=0.004
chemical_smiles=Cc1cn(-c2ccc(C(F)(F)F)cc2NC(=O)Nc2cnc(Oc3ccc(-c4cc(Cl)cnc4N)cc3)nc2)nn1 readout_type=IC50 assay_value=0.001
chemical_smiles=Nc1ncc(Cl)cc1-c1ccc(Oc2ccc(NC(=O)Nc3cc(C(F)(F)F)ccc3-c3cccnc3)cn2)cc1 readout_type=IC50 assay_value=0.001
chemical_smiles=Nc1ncc(Cl)cc1-c1ccc(Oc2ncc(NC(=O)Nc3ccc(C(F)(F)F)cc3C(F)(F)F)cn2)cc1 readout_type=IC50 assay_value=0.002
chemical_smiles=COc1ccc2ncc(-c3ccc(Oc4ncc(NC(=O)Nc5cc(C(F)(F)F)ccc5-c5cccnc5)cn4)cc3)n2n1 readout_type=IC50 assay_value=0.001
chemical_smiles=Nc1ncc(Cl)cc1-c1ccc(Oc2ncc(NC(=O)Nc3ccc(C(F)(F)F)cc3F)cn2)cc1 readout_type=IC50 assay_value=0.003
chemical_smiles=Nc1ncc(Cl)cc1-c1ccc(Oc2ncc(NC(=O)Nc3cc(C(F)(F)F)ccc3Cl)cn2)cc1 readout_type=IC50 assay_value=0.001

These data points were gathered from patent US9463192B2.
